The origin of these recorded values is PubChem BioAssay AID1224866.

tested target: Transcription factor E3 (Homo sapiens)
assay name: TFEB nuclear translocation in HeLa cells, imaging, EGFP fusions (AID 1224866)
stated conditions: HeLa; measured here: TFE3 nuclear translocation; stronger effect = higher value; dose or concentration not given here
recorded endpoint: cells with nuclear EGFP-TFE3 (%)

>>> recorded_value("CC1=C[C@H]2C(=O)[C@]3(C=C(C)[C@H](O)[C@@]3(O)[C@@H]1OC(=O)c1ccccc1)[C@H](C)C[C@@H]1[C@H]2C1(C)C")
4.2
>>> recorded_value("CCCCCCCCCCCC(=O)O[C@@]12C[C@@H](C)[C@]34C=C(C)[C@H](O)[C@@]3(O)[C@H](O)C(COC(=O)C(C)C(C)C)=C[C@@H](C4=O)[C@@H]1C2(C)C (stereo partly specified)")
3.9
>>> recorded_value("CCCCCCCCCCCCCCCC(=O)OCC1=C[C@H]2C(=O)[C@]3(C=C(C)[C@H](O)[C@@]3(O)[C@@H]1O)[C@H](C)C[C@@H]1[C@H]2C1(C)C")
5.1
>>> recorded_value("CCCCCCCCCCCC(=O)O[C@@]12C[C@@H](C)[C@]34C=C(C)[C@H](OC(=O)C(C)C(C)C)[C@@]3(O)[C@H](O)C(CO)=C[C@@H](C4=O)[C@@H]1C2(C)C (stereo partly specified)")
4.3
>>> recorded_value("CC=C(C)C(=O)O[C@@H]1C(C)=C[C@H]2C(=O)[C@]3(C=C(C)[C@H](OC(C)=O)[C@@]13O)[C@H](C)C[C@@H]1[C@H]2C1(C)C")
4.2
>>> recorded_value("CC=C(C)C(=O)O[C@@H]1C(C)=C[C@H]2C(=O)[C@]3(C=C(C)[C@H](O)[C@@]13O)[C@H](C)C[C@@H]1[C@H]2C1(C)C")
5.2

###

tested target: Transcription factor E3 (Homo sapiens) (UniProt P19532)
assay name: TFEB nuclear translocation in HeLa cells, imaging, EGFP fusions (AID 1224866)
stated conditions: HeLa; measured here: TFE3 nuclear translocation; stronger effect = higher value; dose or concentration not given here
Listing: cells with nuclear EGFP-TFE3 of selected compounds
recorded endpoint: cells with nuclear EGFP-TFE3 (%)

>>> recorded_value("CC=C(C)C(=O)O[C@H]1C(C)=C[C@]23C(=O)[C@H](C=C(C)[C@@H](O)[C@]12O)[C@H]1[C@@H](C[C@H]3C)C1(C)C")
5.4
>>> recorded_value("CCCCCCCCCCCCCC(=O)OCC1=C[C@H]2C(=O)[C@]3(C=C(C)[C@H](O)[C@@]3(O)[C@@H]1O)[C@H](C)C[C@@H]1[C@H]2C1(C)C")
4.8
>>> recorded_value("CC1=C[C@H]2C(=O)[C@]3(C=C(C)[C@H](OC(=O)c4ccccc4)[C@@]3(O)[C@@H]1O)[C@H](C)C[C@@H]1[C@H]2C1(C)C")
4
>>> recorded_value("CC(=O)O[C@@H]1C(C)=C[C@H]2C(=O)[C@]3(C=C(C)[C@H](OC(=O)c4ccccc4)[C@@]13O)[C@H](C)C[C@@H]1[C@H]2C1(C)C")
4.6
